# credit: paper PMC4941420

Documented HeLa % of inhibition at 100 μM across a set of compounds
- Test system: class I HDACs (HeLa nuclear extracts)
- method-summary: HDAC activity of HeLa nuclear extracts (Fluor de Lys)
- Format: biochemical, human
- condition-notes: 100 μM, average of at least 3 independent experiments in duplicates (Table 1)
metric: HeLa % of inhibition at 100 μM (%)

CC1(C)Cc2ccccc2C2=C/C(=N/O)C(=O)N21 38.2
O=C(CSc1nc2cc(Cl)c3cccnc3c2o1)c1ccc(O)c(O)c1 20.7
Cc1nn(Cc2ccc(C(=O)NN)cc2)c(C)c1Cl 10.0
NNC(=O)c1ccc(COc2ccccc2Cl)cc1 2.7
NNC(=O)c1ccc(Cn2cc(Cl)cn2)cc1 33.3
NNC(=O)c1ccc(Cn2cc(Br)cn2)cc1 14.7
COc1ccccc1OCc1ccc(C(=O)NN)cc1 5.8
NNC(=O)c1ccc(COc2ccccc2Br)cc1 0.4
